For each of the molecules below, state its inhibition of growth at 10 µM.
- Tested on: MOLM-13
- PROTOCOL_DESCRIPTION: Antiproliferative activity against human MOLM-13 cells assessed as cell growth inhibition at 10 uM incubated for 48 hrs by CCK8 assay relative to control
- Format: functional
- RUN_CONDITIONS: read-out: GI
Give bare numbers, in %.

// solved cases for inhibition of growth at 10 µM follow
| MOLECULE | OUTPUT_UNIT | RECORDED_RESULT |
| --- | --- | --- |
| COc1ccc2c(c1OC)C(=O)O[C@@H]2[C@H]1c2c(c(C3CCC3)c3c(c2OC)OCO3)CCN1C(=O)OC(C)(C)C | % | 40.4 |
| COc1ccc2c(c1OC)C(=O)O[C@@H]2[C@H]1c2c(c(C3CCCC3)c3c(c2OC)OCO3)CCN1C(=O)OC(C)(C)C | % | 40 |
| CCCCc1c2c(c(OC)c3c1OCO3)[C@H]([C@H]1OC(=O)c3c1ccc(OC)c3OC)N(C(=O)OC(C)(C)C)CC2 | % | 48.6 |
| COc1ccc2c(c1OC)C(=O)O[C@@H]2[C@H]1c2c(c(C3CCCCC3)c3c(c2OC)OCO3)CCN1C(=O)OC(C)(C)C | % | 46.1 |

Value sought for every listed molecule: inhibition of growth at 10 µM.
1. COc1ccc2c(c1OC)C(=O)O[C@@H]2[C@H]1c2c(c(CC3CCN3C(=O)OC(C)(C)C)c3c(c2OC)OCO3)CCN1C(=O)OC(C)(C)C (stereo partly drawn)
2. COc1ccc2c(c1OC)C(=O)O[C@@H]2[C@H]1c2c(c(CC3CCCO3)c3c(c2OC)OCO3)CCN1C(=O)OC(C)(C)C (stereo partly drawn)
3. COc1ccc2c(c1OC)C(=O)O[C@@H]2[C@H]1c2c(c(CCCc3ccccc3)c3c(c2OC)OCO3)CCN1C(=O)OC(C)(C)C
4. COc1ccc2c(c1OC)C(=O)O[C@@H]2[C@H]1c2c(c(CC3CCOCC3)c3c(c2OC)OCO3)CCN1C(=O)OC(C)(C)C
5. COc1ccc2c(c1OC)C(=O)O[C@@H]2[C@H]1c2c(c(CCCNC(=O)OC(C)(C)C)c3c(c2OC)OCO3)CCN1C(=O)OC(C)(C)C
6. COc1ccc2c(c1OC)C(=O)O[C@@H]2[C@H]1c2c(c(CC3CCCN3C(=O)OC(C)(C)C)c3c(c2OC)OCO3)CCN1C(=O)OC(C)(C)C (stereo partly drawn)
7. COc1ccc2c(c1OC)C(=O)O[C@@H]2[C@H]1c2c(c(C3CCN(C(=O)OC(C)(C)C)C3)c3c(c2OC)OCO3)CCN1C(=O)OC(C)(C)C (stereo partly drawn)
8. CCOP(=O)(CCc1c2c(c(OC)c3c1OCO3)[C@H]([C@H]1OC(=O)c3c1ccc(OC)c3OC)N(C(=O)OC(C)(C)C)CC2)OCC

Response given:
1. 43.2
2. 44.9
3. 63.2
4. 48.4
5. 48.2
6. 48.1
7. 54.8
8. 31.1

Value sought for every listed molecule: inhibition of growth at 10 µM.
1. COc1ccc2c(c1OC)C(=O)O[C@@H]2[C@H]1c2c(c(CC3CCCCC3)c3c(c2OC)OCO3)CCN1C(=O)OC(C)(C)C
2. COc1ccc2c(c1OC)C(=O)O[C@@H]2[C@H]1c2c(c(CC3CCC3)c3c(c2OC)OCO3)CCN1C(=O)OC(C)(C)C
3. Nc1ccn([C@@H]2O[C@H](CO)[C@@H](O)C2(F)F)c(=O)n1

Response given:
1: 29.3; 2: 53.1; 3: 74.1

Value sought for every listed molecule: inhibition of growth at 10 µM.
1. COc1ccc2c(c1OC)C(=O)O[C@@H]2[C@H]1c2c(c(Br)c3c(c2OC)OCO3)CCN1C
2. COc1ccc2c(c1OC)C(=O)O[C@@H]2[C@H]1c2c(c(C3CCC(C)(C)CC3)c3c(c2OC)OCO3)CCN1C(=O)OC(C)(C)C
3. COc1ccc2c(c1OC)C(=O)O[C@@H]2[C@H]1c2c(c(C3CCCCCC3)c3c(c2OC)OCO3)CCN1C(=O)OC(C)(C)C

Response given:
1. 41.9
2. 47.6
3. 39.4
